# TARGET: T1, human MSLN-R3 on HEK293T-hMSLN-R3 recombinant cells (human, UniProt Q13421 487-606)
# T1 construct: the C-terminal limit is uncertain; also called human MSLN-R3 membrane protein
# T1 sequence (Q13421 495-614): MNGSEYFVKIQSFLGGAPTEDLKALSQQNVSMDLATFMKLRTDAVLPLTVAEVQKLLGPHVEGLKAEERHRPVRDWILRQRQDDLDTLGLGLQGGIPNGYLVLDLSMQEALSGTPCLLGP
# EXPERIMENTAL_DETAILS: FACS, HEK293T-hMSLN-R3 cells
# Maximum_MFI annotations
ASSAY_METRIC: Maximum_MFI (MFI)

1) F2.39.3-H1 (scFv, not shown: small tags and cut ends, also called S009-F2.39.3 humanized antibody VH1 + VL1) scFv: EVQLVQSGAEVKKPGASVKVSCKASGYTFTNYWMHWVRQAPGQGLEWMGNINPSSGDSYYNERFMSRVTMTVDKSTSTVYMELSSLRSEDTAVYYCARSGGLWLAFWGQGTLVTVSSGGGGSGGGGSGGGGSDIVMTQSPDSLAVSLGERATINCKSSQTLLNSVSQNNYLAWYQQKPGQSPKLLIYFASTRESGVPDRFSGSGSGTDFTLTISSLQAEDVAVYYCQQHYRTPYTFGGGTKVEIK :: 5820
2) F2.23.12-H16 (scFv, not shown: small tags and cut ends, also called S009-F2.23.12 humanized antibody VH4 + VL4) scFv: EVQLVQSGAEVKKPGASVKVSCKASGYTFTNYWMHWVRQAPGQGLEWMGNINPSQGGPYYNERFRSRVTMTVDKSTSTAYMELSSLRSEDTAVYYCARPYYGSSYGYFDYWGQGTTVTVSSGGGGSGGGGSGGGGSDIQMTQSPSSLSASVGDRVTITCKASQDINKYIAWYQHKPGKAPKLLIHYTSELQPGVPSRFSGSGSGRDYTFTISSLQPEDIATYYCLQYANPLRTFGGGTKVEIK :: 4010
3) Tab111 (scFv, not shown: small tags and cut ends, also called YP218 VL-(G4S)3-VH-his antibody; positive control) scFv: DVVMTQTPASVSEPVGGTVTIKCQASQRISSYLSWYQQKPGQRPKLLIFGASTLASGVPSRFKGSGSGTEYTLTISDLECADAATYYCQSYAYFDSNNWHAFGGGTEVVVGGGGSGGGGSGGGGSQQQLEESGGGLVKPEGSLTLTCKASGFDLGFYFYACWVRQAPGKGLEWIACIYTAGSGSTYYASWAKGRFTISKASSTTVTLQMTSLAAADTATYFCARSTANTRSTYYLNLWGPGTLVTVSS :: 4970
4) F2.39.3-H9 (scFv, not shown: small tags and cut ends, also called S009-F2.39.3 humanized antibody VH3 + VL1) scFv: EVQLVQSGAEVKKPGASVKVSCKASGYTFTNYWMHWVRQAPGQGLEWMGNINPSSGDSYYNERFMSRVTMTVDKSTSTAYMELSSLRSEDTAVYYCARSGGLWLAFWGPGTLVTVSSGGGGSGGGGSGGGGSDIVMTQSPDSLAVSLGERATINCKSSQTLLNSVSQNNYLAWYQQKPGQSPKLLIYFASTRESGVPDRFSGSGSGTDFTLTISSLQAEDVAVYYCQQHYRTPYTFGGGTKVEIK :: 5560
5) F2.39.3-H6 (scFv, not shown: small tags and cut ends, also called S009-F2.39.3 humanized antibody VH2 + VL2) scFv: EVQLVQSGAEVKKPGASVKVSCKASGYTFTNYWMHWVRQAPGQGLEWMGNINPSSGDSYYNERFMSRVTMTVDKSTSTAYMELSSLRSEDTAVYYCARSGGLWLAFWGQGTLVTVSSGGGGSGGGGSGGGGSDIVMTQSPDSLAVSLGERATINCKSSQTLLNSVSQNNYLAWYQQKPGQSPTLLIYFASTRESGVPDRFSGSGSGTDFTLTISSLQAEDVAVYYCQQHYRTPYTFGGGTKVEIK :: 5780
